Item-by-item account of CD25 Activation, Day 6, IS
target: canine CD3 on canine T cells (canine PBMC) (canine, UniProt P27597 22-202); test: cell-based or functional assay
Sequence (P27597 22-202 limits assumed, chain 1 of 3): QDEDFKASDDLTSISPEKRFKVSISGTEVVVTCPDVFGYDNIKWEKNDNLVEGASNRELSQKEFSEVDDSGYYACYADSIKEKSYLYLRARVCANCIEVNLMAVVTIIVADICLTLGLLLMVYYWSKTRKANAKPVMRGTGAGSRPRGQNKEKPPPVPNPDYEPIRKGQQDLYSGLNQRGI
Sequence (chain, as listed by the source limits assumed, chain 2 of 3): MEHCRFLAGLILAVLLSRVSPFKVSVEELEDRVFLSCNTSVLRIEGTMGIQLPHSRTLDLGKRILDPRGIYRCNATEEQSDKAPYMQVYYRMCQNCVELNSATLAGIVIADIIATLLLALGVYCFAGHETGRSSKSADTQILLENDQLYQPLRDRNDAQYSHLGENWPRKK
Sequence (chain, as listed by the source limits assumed, chain 3 of 3): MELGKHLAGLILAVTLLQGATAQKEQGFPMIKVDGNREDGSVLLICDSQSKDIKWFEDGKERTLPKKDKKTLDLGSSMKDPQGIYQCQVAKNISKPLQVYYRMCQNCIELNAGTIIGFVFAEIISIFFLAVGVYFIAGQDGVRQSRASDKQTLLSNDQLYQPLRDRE
Please state the value as a number alone, without comment.

1. PMX167 (monospecific anti-canine CD3, canine IgG-B effector function deficient Fc) (antibody, V domains shown) VH: EVKLVESGGDLVKPGGSLRLSCMASGFTLNNYYMSWVRQAPGKGLQWVAYIKSGGSDTSYVDAVKGRFTISRDNAKNTLHLQMNSLRVEDTAVYYCATDGYIWAWGQGTLVTVSS VL: SYVLTQLPSKNVTLKQPAHITCGGDNIGSKSVHWYQQKLGQAPVLIIYYDNSRPTGIPERFSGAKSGNTATLTISGALAEDEADYYCQVWDSSSKAYVFGSGTQLTVL; 7.09

Alright, here's another binder for you.
Input line: // CD25 Activation, Day 6, IS lookup, key: PMX198 (monospecific anti-canine CD3, canine IgG-B effector function deficient Fc) (antibody, V domains shown) VH: EFTLQESGPGLVKPSQTLSLTCIVSGGSVTSSYYWNWIRQRPGRGLEWMGYWTGSTNYNPAFQGRISITPDTAKNQFSLQLSSMTTEDTAVYYCAREGGSSLQAFGNWGQGTLVTVSS VL: SYVLTQLPSKNVTLKQPAHITCGGDNIGRKSVHWYQQKLGQAPILIIYYDSSRPTGIPERFSGANSGNTATLTISGALAEDEADYYCQVWDSSAKASVFGGGTHLTVL
Output line: 11.3
